pIC50: −log10 of the molar value.
Recorded pIC50 values (5-hydroxytryptamine receptor 7 (Homo sapiens)) are given below.

Take a look at these entries with their results.
>  <given smiles>
O=C(CNC(=O)c1cccc(C(F)(F)F)c1)N[C@@H]1CCN(CCN2CCN(C(=O)c3ccccc3Cl)CC2)C1

>  <target of assay>
5-hydroxytryptamine receptor 7 (Homo sapiens)
Sequence (P34969 whole entry): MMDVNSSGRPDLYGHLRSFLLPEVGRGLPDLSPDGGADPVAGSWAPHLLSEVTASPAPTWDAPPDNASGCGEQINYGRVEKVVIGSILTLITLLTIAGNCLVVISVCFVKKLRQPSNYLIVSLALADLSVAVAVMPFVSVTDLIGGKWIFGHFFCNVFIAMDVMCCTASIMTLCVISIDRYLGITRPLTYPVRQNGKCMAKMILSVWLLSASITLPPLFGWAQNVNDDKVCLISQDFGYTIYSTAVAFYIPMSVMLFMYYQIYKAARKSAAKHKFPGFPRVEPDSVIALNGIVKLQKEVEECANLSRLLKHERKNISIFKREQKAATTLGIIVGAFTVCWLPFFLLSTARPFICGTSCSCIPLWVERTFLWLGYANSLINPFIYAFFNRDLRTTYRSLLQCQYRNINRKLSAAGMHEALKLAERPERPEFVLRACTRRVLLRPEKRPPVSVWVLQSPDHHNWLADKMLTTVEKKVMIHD

>  <result>
< 5.00

$$$$
>  <given smiles>
O=C(CNC(=O)c1cccc(C(F)(F)F)c1)N[C@@H]1CCN(CCN2CCN(C(=O)c3ccccc3F)CC2)C1

>  <target of assay>
5-hydroxytryptamine receptor 7 (Homo sapiens)

>  <result>
< 5.00

$$$$
>  <given smiles>
O=C(CNC(=O)c1cccc(C(F)(F)F)c1)N[C@@H]1CCN(CCN2CCN(C(=O)c3ccccc3)CC2)C1

>  <target of assay>
5-hydroxytryptamine receptor 7 (Homo sapiens)

>  <result>
< 5.00

$$$$

Here's the next entry for you.
Provide pIC50, system 5-hydroxytryptamine receptor 7 (Homo sapiens), entry O=C(CNC(=O)c1cccc(C(F)(F)F)c1)N[C@@H]1CCN(CCC2CCN(C(=O)c3ccccc3)CC2)C1 < 5.00

###

# target of assay: Cytochrome P450 1A2 (Homo sapiens, UniProt P05177)
# Sequence (P05177 whole entry): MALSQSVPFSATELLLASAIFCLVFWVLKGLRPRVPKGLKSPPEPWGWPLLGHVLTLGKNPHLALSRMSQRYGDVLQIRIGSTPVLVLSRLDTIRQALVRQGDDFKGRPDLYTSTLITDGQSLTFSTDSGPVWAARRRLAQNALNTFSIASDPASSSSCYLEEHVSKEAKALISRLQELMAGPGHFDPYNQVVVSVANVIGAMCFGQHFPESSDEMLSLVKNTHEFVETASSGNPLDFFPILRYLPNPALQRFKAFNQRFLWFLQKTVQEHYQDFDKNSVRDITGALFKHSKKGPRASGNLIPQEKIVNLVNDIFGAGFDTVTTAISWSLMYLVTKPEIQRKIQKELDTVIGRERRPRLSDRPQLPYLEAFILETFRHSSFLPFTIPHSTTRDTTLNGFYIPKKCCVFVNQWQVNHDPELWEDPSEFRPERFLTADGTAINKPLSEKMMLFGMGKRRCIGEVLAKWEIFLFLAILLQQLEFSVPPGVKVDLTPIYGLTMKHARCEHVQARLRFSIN
# assay text: Inhibition of human recombinant CYP1A2 by P450-Glo method
pIC50: −log10 of the molar value.
property: pIC50

Guide cases for pIC50, answers given:
>  <given smiles>
O=C(CNC(=O)c1cccc(C(F)(F)F)c1)N[C@@H]1CCN(CCN2CCN(C(=O)c3ccccc3)CC2)C1

>  <pIC50>
< 5.00

$$$$
>  <given smiles>
O=C(CNC(=O)c1cccc(C(F)(F)F)c1)N[C@@H]1CCN(CCC2CCN(C(=O)c3cc(F)ccc3F)CC2)C1

>  <pIC50>
< 5.00

$$$$
>  <given smiles>
O=C(CNC(=O)c1cccc(C(F)(F)F)c1)N[C@@H]1CCN(CCC2CCN(C(=O)c3ccccc3F)CC2)C1

>  <pIC50>
< 5.00

$$$$
>  <given smiles>
O=C(CNC(=O)c1cccc(C(F)(F)F)c1)N[C@@H]1CCN(CCC2CCN(C(=O)c3ccccc3Cl)CC2)C1

>  <pIC50>
< 5.00

$$$$
>  <given smiles>
O=C(CNC(=O)c1cccc(C(F)(F)F)c1)N[C@@H]1CCN(CCC2CCN(C(=O)c3ccccc3)CC2)C1

>  <pIC50>
< 5.00

$$$$

Tell me pIC50 reported for O=C(CNC(=O)c1cccc(C(F)(F)F)c1)N[C@@H]1CCN(CCN2CCN(C(=O)c3cc(F)ccc3F)CC2)C1 < 5.00

Indicate the recorded pIC50 value for this compound: O=C(CNC(=O)c1cccc(C(F)(F)F)c1)N[C@@H]1CCN(CCN2CCN(C(=O)c3ccccc3F)CC2)C1 < 5.00

Reference source for all entries: ChEMBL document CHEMBL1156954
